target: ABCC6 WT (Homo sapiens, UniProt O95255); assay: ABCC6 WT assay: HiBit protein expression; conditions: HEK-293 cells transiently expressing HiBit-tagged ABCC6 WT; 24 h treatment; top concentration 20 μM; read-out: ABCC6 WT EC50, Emax
Sequence (O95255 whole entry): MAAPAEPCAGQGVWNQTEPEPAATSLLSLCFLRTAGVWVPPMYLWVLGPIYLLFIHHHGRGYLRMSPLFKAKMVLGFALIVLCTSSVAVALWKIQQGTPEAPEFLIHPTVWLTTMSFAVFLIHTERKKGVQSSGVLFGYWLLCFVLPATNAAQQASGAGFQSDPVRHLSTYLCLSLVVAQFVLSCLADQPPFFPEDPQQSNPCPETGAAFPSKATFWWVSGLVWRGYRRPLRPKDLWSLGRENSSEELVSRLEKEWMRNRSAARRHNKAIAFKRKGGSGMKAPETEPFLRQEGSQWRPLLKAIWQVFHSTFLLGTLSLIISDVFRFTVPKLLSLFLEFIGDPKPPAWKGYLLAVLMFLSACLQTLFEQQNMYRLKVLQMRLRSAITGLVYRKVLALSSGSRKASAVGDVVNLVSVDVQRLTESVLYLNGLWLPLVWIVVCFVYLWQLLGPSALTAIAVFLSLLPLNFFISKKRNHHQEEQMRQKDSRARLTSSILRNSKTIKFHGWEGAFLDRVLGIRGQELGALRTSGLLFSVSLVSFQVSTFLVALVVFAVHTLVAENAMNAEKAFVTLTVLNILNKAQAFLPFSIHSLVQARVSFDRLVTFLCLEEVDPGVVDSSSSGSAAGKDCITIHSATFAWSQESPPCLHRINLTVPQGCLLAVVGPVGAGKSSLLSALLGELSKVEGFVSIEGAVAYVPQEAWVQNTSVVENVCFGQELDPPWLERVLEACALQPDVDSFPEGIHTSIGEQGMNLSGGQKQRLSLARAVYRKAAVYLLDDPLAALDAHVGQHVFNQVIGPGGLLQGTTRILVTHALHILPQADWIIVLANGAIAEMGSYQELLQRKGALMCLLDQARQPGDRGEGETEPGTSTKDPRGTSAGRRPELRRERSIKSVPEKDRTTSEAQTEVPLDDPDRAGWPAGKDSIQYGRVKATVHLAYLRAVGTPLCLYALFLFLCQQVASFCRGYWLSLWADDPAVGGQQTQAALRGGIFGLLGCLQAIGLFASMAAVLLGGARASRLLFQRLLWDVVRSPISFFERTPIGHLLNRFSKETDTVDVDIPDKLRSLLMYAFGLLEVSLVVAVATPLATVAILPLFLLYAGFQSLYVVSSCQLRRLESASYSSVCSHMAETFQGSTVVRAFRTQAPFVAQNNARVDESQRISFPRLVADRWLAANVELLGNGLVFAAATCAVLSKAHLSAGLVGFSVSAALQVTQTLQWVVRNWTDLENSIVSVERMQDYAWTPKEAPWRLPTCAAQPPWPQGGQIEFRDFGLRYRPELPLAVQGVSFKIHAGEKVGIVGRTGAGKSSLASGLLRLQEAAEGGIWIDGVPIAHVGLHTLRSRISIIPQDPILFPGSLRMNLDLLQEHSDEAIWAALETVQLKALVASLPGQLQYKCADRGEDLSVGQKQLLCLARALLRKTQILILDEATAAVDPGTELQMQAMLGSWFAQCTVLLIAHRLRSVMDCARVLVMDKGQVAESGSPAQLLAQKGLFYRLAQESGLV
pEC50: −log10 of the molar value.
assay-metric: pEC50

| molecule | subject-of-test | result |
| --- | --- | --- |
| Cc1cc(C)c(Oc2nc(N3CCC(C#N)C3)ccc2NS(C)(=O)=O)c(C)c1 (single isomer, unassigned) [Compound I-261] | ABCC6 WT (Homo sapiens, UniProt O95255) | 5.00 to 6.00 |
| Cc1cc(N2CCC2)nc(C)c1Oc1nc(-c2cncc(C#N)c2)ccc1NS(C)(=O)=O [Compound I-177] | ABCC6 WT (Homo sapiens, UniProt O95255) | > 6.00 |
| COc1cc(-c2ccc(NS(C)(=O)=O)c(Oc3c(C)cc(C)nc3C)n2)ccn1 [Compound I-188] | ABCC6 WT (Homo sapiens, UniProt O95255) | > 6.00 |
| Cc1cc(C)c(Oc2nc(-c3cncc(C4CN(C)C4)c3)ccc2NS(C)(=O)=O)c(C)n1 [Compound I-194] | ABCC6 WT (Homo sapiens, UniProt O95255) | ≤ 4.60 |
| Cc1cc(C)c(Oc2nc(-c3cncc(C#N)c3)ccc2S(C)(=N)=O)c(C)c1 (centres unmarked) [Compound I-279] | ABCC6 WT (Homo sapiens, UniProt O95255) | > 6.00 |
| Cc1cc(C)c(Oc2nc(-c3cncc(Cl)c3)ccc2S(C)(=O)=O)c(C)c1 [Compound I-104] | ABCC6 WT (Homo sapiens, UniProt O95255) | 5.00 to 6.00 |
| Cc1cc(C)c(Oc2nc(-c3cncc(Cl)c3)ccc2NS(=O)(=O)C2COC2)c(C)c1 [Compound I-41] | ABCC6 WT (Homo sapiens, UniProt O95255) | > 6.00 |
| Cc1cc(C)c(Oc2nc(-c3cnn(C)c3)ccc2NS(C)(=O)=O)c(C)c1 [Compound I-14] | ABCC6 WT (Homo sapiens, UniProt O95255) | 5.00 to 6.00 |

###

Target: ABCC6 WT (Homo sapiens, UniProt O95255)
Assay: ABCC6 WT assay: HiBit protein expression
Details: HEK-293 cells transiently expressing HiBit-tagged ABCC6 WT; 24 h treatment; top concentration 20 μM; read-out: ABCC6 WT EC50, Emax
Procedure: To assess activity against ABCC6, compounds were screened in an assay measuring protein expression, using cells transfected with cDNA encoding HiBit-tagged ABCC6 wild-type. […] Dose response curves include ten doses with the top final concentration at 20 μM in 0.15% DMSO. […] The plates are rotated at room temperature for 10 minutes and luminescent signal is acquired using an EnVision Multimode Plate Reader (PerkinElmer). […]
pEC50: −log10 of the molar value.

| compound | pEC50 |
| --- | --- |
| Cc1nc(C(F)(F)F)nc(C2CC2)c1Oc1nc(-c2cncc(C#N)c2)ccc1N(C)S(C)(=O)=O [Compound I-142] | ≤ 4.60 |
| Cc1cc(C2CC2)nc(C)c1Oc1nc(-c2cncc(C#N)c2)ccc1S(C)(=N)=O (stereo not shown) [Compound I-251] | 4.60 to 5.00 |
| Cc1cc(C)c(Oc2nc(-c3cncc(Cl)c3)ccc2NS(=O)(=O)c2cccnc2)c(C2CC2)c1 [Compound I-54] | > 6.00 |
| Cc1cc(C)c(Oc2nc(-c3cccc(C#N)c3)ccc2S(=N)(=O)C2CC2)c(C)n1 (stereo not shown) [Compound I-316] | 5.00 to 6.00 |
